Source of measurements: patent US20250206841A1

Listing: koff of selected binders
# targetDesc: T1, cynomolgus Trop-2-His protein (cynomolgus, UniProt P09758 27-274 (human entry))
# T1 construct: also called cynmolgus Trop-His; Kactus Cat #TRP-CM121; not shown: His tag
# T1 chain: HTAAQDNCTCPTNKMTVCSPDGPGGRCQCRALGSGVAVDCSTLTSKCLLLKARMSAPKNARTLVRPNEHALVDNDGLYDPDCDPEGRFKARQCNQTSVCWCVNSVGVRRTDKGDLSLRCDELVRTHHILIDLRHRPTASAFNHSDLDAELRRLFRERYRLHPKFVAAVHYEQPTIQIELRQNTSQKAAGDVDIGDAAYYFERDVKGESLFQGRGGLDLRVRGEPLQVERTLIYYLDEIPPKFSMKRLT
# assayText: BLI (Gator Prime), LEM supernatant Ab on HFC probe
propertyName: koff (s⁻¹)

INSERT INTO measurements (binder, measvalue) VALUES
  ('62A10 (antibody, V domains shown, Rabbit-derived clone; LEM construct: VH + rabbit IgG CH1 + human IgG1 CH2-CH3) VH: QSLVESGGGLVQPEGSLTLTCKASGFDFNNYAVTWVRQAPGEGLEYIGFIGIRGHIYYANWAKGRFTISKTSSTTMTLQMTSLTVADTATYFCARGGLWTGNSYFDLWGPGTLVTVSS VL: YDMTQTPASVEVAVGGTVTINCQASESISRYLAWYQQKPGQSPKPLIYRASTLASGVPSRFQGSGSGTEYTLTISDLECADAATYYCQQGYGYSTVDNAFGGGTEVVVK', 0.00092),
  ('65D5 (antibody, V domains shown, Rabbit-derived clone; LEM construct: VH + rabbit IgG CH1 + human IgG1 CH2-CH3) VH: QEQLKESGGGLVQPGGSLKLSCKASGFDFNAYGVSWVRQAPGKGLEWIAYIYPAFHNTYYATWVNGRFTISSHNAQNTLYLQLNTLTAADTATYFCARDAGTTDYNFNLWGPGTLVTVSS VL: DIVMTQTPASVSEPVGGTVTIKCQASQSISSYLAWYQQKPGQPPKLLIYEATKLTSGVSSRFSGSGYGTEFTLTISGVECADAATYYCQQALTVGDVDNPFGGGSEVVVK', 0.00061),
  ('12G6 (antibody, V domains shown, Rabbit-derived clone; LEM construct: VH + rabbit IgG CH1 + human IgG1 CH2-CH3) VH: QEQLKESGGGLVQPGGSLTLSCKASGFDFNNYGVSWVRQAPGKGLEWIGYIYPAYHNTYYATWVNGRFTISSHNAQNTLYLQLNTLTAADTATYFCARDAGNTDYNFNLWGPGTLVTVSS VL: DVVMTQTPASVEVAVGGTVTIKCQASEDIESYLAWYQQKPGQPPKLLIYEASKLASGVSSRFSGGGYGTEFTLTISGVECADAATYYCQQALTIGNVDNPFGGGSEVVVK', 0.00047),
  ('62E3 (antibody, V domains shown, Rabbit-derived clone; LEM construct: VH + rabbit IgG CH1 + human IgG1 CH2-CH3) VH: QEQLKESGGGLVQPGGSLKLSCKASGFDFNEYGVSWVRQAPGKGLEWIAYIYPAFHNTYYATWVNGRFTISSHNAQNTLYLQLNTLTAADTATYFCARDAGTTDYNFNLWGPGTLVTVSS VL: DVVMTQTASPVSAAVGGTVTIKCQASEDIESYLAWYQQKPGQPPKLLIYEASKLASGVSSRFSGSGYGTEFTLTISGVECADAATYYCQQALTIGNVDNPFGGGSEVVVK', 0.00045),
  ('9A5 (antibody, V domains shown, Rabbit-derived clone; LEM construct: VH + rabbit IgG CH1 + human IgG1 CH2-CH3) VH: QEQLKESGGGLVQPGGSLTLSCKASGFDFNNYGVSWVRQAPGKGLEWIAYIYPTYHNTYYATWVNGRFTISSHNAQNTLYLQLNTLTAADTATYFCARDAGGTDYNFNLWGPGTLVTVSS VL: DVVMTQTPASVEAAVGGTVTINCQASQSIESYLAWYQQKPGQPPKLLIYEASKLASGVSSRFSGGGYGTEFTLTISGVECADAATYYCQQALTIGNVDNPFGGGSEVVVK', 0.00041);
